Item-by-item account of LD50 at 24 h
Test: Acute toxicity in mice (LD50, Litchfield and Wilcoxon)
Settings: mouse, in vivo, sc, male NRMI mice, subcutaneous, read-out: Acute Toxicity LD50, S.C.
The response must be a number in mg/kg with no trailing unit.

CCN(CC)CCN=S(=O)(c1ccccc1)c1ccco1 (centres unmarked) [Example 10] : 150
CCN(CC)CCN=S(=O)(c1ccccc1)c1ccsc1 (centres unmarked) [Example 4] : 150
CCN(CC)CCN=S(=O)(c1cccs1)c1cccs1 [Example 5] : 100
CN(C)CCCN=S(=O)(c1ccccc1)c1cccs1 (centres unmarked) [Example 2] : 600

Recorded result, CCN(CC)CCN=S(=O)(c1ccccc1)c1ccccc1 [Sulfoxifen-Phosphate, reference compound] , LD50 at 24 h: 175
